Reference for the values: ChEMBL document CHEMBL4811248

- test: Half life in Lewis rat at 5 mg/kg, po measured up to 24 hrs by LC-MS/MS method
- Type: ADME, organism-based
- conditionLabel: in vivo
propertyName: half-life (h)

1) CCS(=O)(=O)N1CC(CC#N)(n2cc(-c3ncnc4[nH]ccc34)cn2)C1 [BARICITINIB]    2.43

###

- test: Distribution coefficient between octanol and aqueous buffer, logD of the compound in pH 7.2 buffer
propertyName: logD

1) CCS(=O)(=O)N1CC(CC#N)(n2cc(-c3ncnc4[nH]ccc34)cn2)C1 [BARICITINIB]    0.24

###

- test: Tmax in Lewis rat at 5 mg/kg, po measured up to 24 hrs by LC-MS/MS method
- Assay type: ADME, organism-based
- conditionLabel: in vivo
propertyName: Tmax (h)

1) CCS(=O)(=O)N1CC(CC#N)(n2cc(-c3ncnc4[nH]ccc34)cn2)C1 [BARICITINIB]    1

###

- test: Aqueous solubility of compound by HPLC analysis
- Assay type: physicochemical
- conditionLabel: buffer
propertyName: solubility (µg/mL)

1. CCS(=O)(=O)N1CC(CC#N)(n2cc(-c3ncnc4[nH]ccc34)cn2)C1    16.3

###

- test: Cmax in Lewis rat at 5 mg/kg, po measured up to 24 hrs by LC-MS/MS method
- Type: ADME, organism-based
- Parameters: route oral, dose 5 mg/kg, time <=24
- conditionLabel: in vivo
propertyName: Cmax

1. CCS(=O)(=O)N1CC(CC#N)(n2cc(-c3ncnc4[nH]ccc34)cn2)C1 [BARICITINIB]    659 ng/mL

###

- test: MRT in Lewis rat at 1 mg/kg, iv measured up to 24 hrs by LC-MS/MS method
- Format: ADME, organism-based
- conditionLabel: in vivo
propertyName: MRT (h)

1. CCS(=O)(=O)N1CC(CC#N)(n2cc(-c3ncnc4[nH]ccc34)cn2)C1    1.34
